# test.system: B*3503 (Homo sapiens, UniProt P01889, A329T/A93T/A95T/C349S/D201E/D98Y/E176V/E187L/E204Q/E69T/I218V/K202T/L119I/Q94N/R155S/R180L/S121R/S35A/S48A/T118I/V127L/V306I/V36M/Y140F/Y91F)
# measurement.notes: biochemical
# Format: binding
metric.name: IC50 (nM)
Provide only the numeric value, understood in nM.

The measured IC50 associated with CC[C@H](C)[C@H](NC(=O)[C@H](C)NC(=O)[C@H](CC(C)C)NC(=O)[C@H](CCC(N)=O)NC(=O)[C@@H](NC(=O)[C@H](CCC(=O)O)NC(=O)[C@H](CC(C)C)NC(=O)[C@@H]1CCCN1C(=O)[C@@H](N)CCSC)[C@@H](C)O)C(=O)O reads 12

###

# test.system: A*3301 (Homo sapiens, UniProt P04439, A270S/D185E/E176V/E277Q/E87N/F33T/G231S/H175R/I121M/I218V/I322F/K168Q/K210R/L300P/L318F/M331R/P217A/Q86R/Q94H/R138Q/T323A/T345S/T97I/V358M/Y195H)
# measurement.notes: biochemical
# Assay type: binding
No end group written: not given here.
Kindly supply the reported IC50 values for the records listed here.
Provide only the numeric value, understood in µM.

The measured IC50 associated with RFLSKISEYR [Peptide 1571.13] reads 0.02

The measured IC50 associated with WFFVETIVEK [Peptide 88.0171] reads 0.201

The measured IC50 associated with GVSIEWRQR [Peptide 9017.0087] reads 2.09

The measured IC50 associated with QTCALYWFR [Peptide 88.0361] reads 0.019

###

# test.system: A*6801 (Homo sapiens, UniProt P04439, A269V/D185E/E176V/E277Q/E87N/F33Y/G231S/I121M/I166T/I218V/L180W/L300P/L318F/N151K/P208A/P217A/Q86R/R169H/T345S)
# measurement.notes: biochemical
# Type: binding
No end group written: not given here.
metric.name: IC50

The measured IC50 associated with GVEFISFLR [Peptide 1587.55] reads 48 nM

The measured IC50 associated with MTYVAWDSVY [Peptide 1589.07] reads 73 nM

The measured IC50 associated with KLFGYSWYK [Peptide 76.0146] reads 16 nM

The measured IC50 associated with RVLQGLPREK [Peptide 9012.0238] reads 14400 nM

The measured IC50 associated with VTVYYGIPVWR [Peptide 1525.05] reads 3.6 nM

The measured IC50 associated with VVLLLVRYK [Peptide 1587.05] reads 540 nM

The measured IC50 associated with SVYGETLEK [Peptide 78.0291] reads 2620 nM

The measured IC50 associated with GQWIQSRCEK [Peptide 88.0166] reads > 20000 nM

The measured IC50 associated with AFKDLFVVYK [Peptide 88.0024] reads 576 nM

The measured IC50 associated with RQQFLKTVK [Peptide 1589.33] reads > 20000 nM

The measured IC50 associated with GVLILALLR [Peptide 88.0338] reads 943 nM

The measured IC50 associated with ALTALIKPK [Peptide 9017.0098] reads 6020 nM

The measured IC50 associated with LTTNIHPAK [Peptide 88.0347] reads 16 nM

The measured IC50 associated with VTVKIGGELK [Peptide 1516.03] reads 33 nM
